B1: LINE1-full (parent)
chain: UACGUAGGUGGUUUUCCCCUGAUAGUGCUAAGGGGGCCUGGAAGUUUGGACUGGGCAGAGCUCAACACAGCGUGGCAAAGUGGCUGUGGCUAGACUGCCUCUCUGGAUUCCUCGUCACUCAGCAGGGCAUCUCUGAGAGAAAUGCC

Variants of: B1
Test: self-cleavage, relative activity (ratio to wild type); higher = more cleavage; in vitro, sequencing; the parent is a self-cleaving ribozyme
# binarize self-cleavage: threshold 1 inclusive, high side Y, low side N

Example entries begin here.
Given the entry UACGUAGGUGGUUCUCCCCUGAUAGUGCUAAGGGGGCCUGGAAGUUUGGACUGGGCAGAGCUCAACACAGCGUGGCAAAGUGGCUGUGGCUAGACUGCCUCUCUGGAUUCCUCGUCACUCAGCAGGGCACCUCUGAGAGAAAUGCC [U14C U130C] , answer whether its self-cleavage meets or surpasses 1.
Y

Can UACGUAGGUGGUUUUCCCCUGAUAGUGCUAAGGGGGCCUGGAAGUUUGGACUGAGCAGAGCUCAACACAGCGUGGCAAAGUGGCUGUGGCUAGACUGCCUCUCCGGAUUCCUCGUCACUCAGCAGGGCAUCUCUGAGAGAAAUGCC [G54A U104C] be said to have self-cleavage at or above 1?
N

Say whether UACGUAGGUGGUUUUCCCCUGAUAGUGCUAAGGGGGCCUGGAGGUUUGGACUGGGCAGAGCUCAACACAGCGUGGCAAAGUGGCUGUGGCUAGACUGCCUCUCUGGAUUCCUCGUCACUCAGCAGGGCAUCUCUGAGAGAAAUGCC [A43G] shows self-cleavage of 1 or more.
Y

Hi team, for UACGUAGGUGGUUUUCCCCUGAUAGUGCUAAGGGGGCCUGGAAGUUUGGACUGGGCAGAGCUCAACACGGCGUGGCAAAGUGGCUGCGGCUAGACUGCCUCUCUGGAUUCCUCGUCACUCAGCAGGGCAUCUCUGAGAGAAAUGCC [A69G U87C] , is the recorded self-cleavage at or above 1?
N

Entry UACGUAGGUGGUUUUCCCCUGAUAGUGCUAAGGGGGCCUGGAAGUUUGGACUGGGCAGAGCACACCACAGCGUGGCAAAGUGGCUGUGGCUAGACUGCCUCUCUGGAUUCCUCGUCACUCAGCAGGGCAUCUCUGAGAGAAAUGCC [U62A A65C] : is its self-cleavage no less than 1?
N

Others:
Identify whether the reported self-cleavage of the following variant is 1 or greater: UACGUAGGUGGUUUUCCCCUGAUAGUGCUAAGGGGGCCUGGAAGUUUGGACUGGGCAGAGCUCAACACAGCGGGGCAAAGUGGCUGUGGCUAGACUGCCUCUCUGGAUUCCUCGUCACUCAGCGGGGCAUCUCUGAGAGAAAUGCC [U73G A124G]
N

hey, is self-cleavage for this one >= 1? UACGUAGGUGGUUUUCCCCUGAUAGUGCUAAGGGGGCCUGGAAGUUUGGACUGGGCAGAGCUCAACACAGCGUGGCAAAGUGGCUGUGUCUAGACUGCCUCUCUGGAUUCCUCGUCACUCAGCAGGGCAUCUCUGAGAGAAAUGCC [G89U]
N

Reported self-cleavage reaches at least 1 for UACGUAGGUGGUUUCCCCCUGAUAGUGCUAAGGGGGCCUGGAAGUUUGGACUGGGCAGAGCUUAACACAGCGUGGCAAAGUGGCUGUGGCUAGACUGCCUCUCUGGAUUCCUCGUCACUCAGCAGGGCAUCUCUGAGAGAAAUGCC [U15C C63U] ?
N

Please check the record UACGUAGGUGGUUUUCCCCUGAUAGUGCUAAGGGGGCCUGGAAGUUUGAACUGGGCAGAGCUCAACACAGCGUGGCAAAGUGGCCGUGGCUAGACUGCCUCUCUGGAUUCCUCGUCACUCAGCAGGGCAUCUCUGAGAGAAAUGCC [G49A U85C] and state if its self-cleavage is at or above 1.
N

Has UACGUAGGUGGUUUUCCCCUGAUAGUGCUAAGGGGGCCUGGGAGUUUGGACUGGGCAGAGCUCAACACAGCGUGGCAAAGUGGCUGUGGCUAGACUGCCUCUCCGGAUUCCUCGUCACUCAGCAGGGCAUCUCUGAGAGAAAUGCC [A42G U104C] a recorded self-cleavage greater than or equal to 1?
Y

API: above_or_equal(metric=self-cleavage, cutoff=1) for item UACGUAGGUGGUUUUCCCCUGAUAGUGCUAAGGGGGCCUGGAAGUUUGGACUGGGCAGAGCUCAACACAGCGUGGCAAAGUGGCUGUGGCUAGACUGCCUCCCUGGAUUCCUCGUCACUCAGCAGGGCAUCUCUGAGAGGAAUGCC [U102C A140G]
Y

Could you please find out whether UACGUAGGUGGUUUUCCCCUGAUAGUGCUAAGGGGGCCUGGAAGUUUGGACUGGGCAGAGCUCAACACAGCGUGGCAGUGUGGCUGUGGCUAGACUGCCUCUCUGGAUUCCUCGUCACUCAGCAGGGCAUCUCUGAGAGAAAUGCC [A78G A79U] has self-cleavage that meets 1 or exceeds it?
N

Quick check, self-cleavage >= 1? UACGUAGGUGGUUUUCCCCUGAUAGUGCUAAGGGGGCCUGGAAGUUUGGACUGGGCAGAGCUCUACGCAGCGUGGCAAAGUGGCUGUGGCUAGACUGCCUCUCUGGAUUCCUCGUCACUCAGCAGGGCAUCUCUGAGAGAAAUGCC [A64U A67G]
N
